Each recorded value in this set is attributed to patent US9029544B2.

Biological target: Recombinant human CETP (Homo sapiens, UniProt P11597)
Sequence (P11597 18-493): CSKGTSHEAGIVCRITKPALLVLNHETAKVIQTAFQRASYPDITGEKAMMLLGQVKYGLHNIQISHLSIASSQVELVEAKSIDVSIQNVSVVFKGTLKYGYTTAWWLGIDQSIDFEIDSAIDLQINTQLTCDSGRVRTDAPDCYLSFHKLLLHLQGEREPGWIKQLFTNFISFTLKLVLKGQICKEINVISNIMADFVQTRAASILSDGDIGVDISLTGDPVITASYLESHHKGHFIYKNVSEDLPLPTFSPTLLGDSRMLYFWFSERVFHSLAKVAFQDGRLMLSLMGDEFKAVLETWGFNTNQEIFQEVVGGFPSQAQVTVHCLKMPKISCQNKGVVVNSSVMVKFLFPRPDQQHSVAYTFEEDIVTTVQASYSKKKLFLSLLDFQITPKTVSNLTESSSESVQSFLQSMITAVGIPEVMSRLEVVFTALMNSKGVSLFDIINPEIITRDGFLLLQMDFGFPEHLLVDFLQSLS
Assay: CETP in vitro assay (fluorometric assay, Roar Biomedical; cholesterol ester transfer from HDL to LDL)
Settings: recombinant human CETP from CHO cells; 3 hours at 37° C.; fluorescence 485/535 nm; compound concentrations between 1 nM and 30 μM; read-out: IC50 values for inhibition of CETP
pIC50: −log10 of the molar value.
This section presents compounds with their documented pIC50 values.

| compound | pIC50 |
| --- | --- |
| CC1(C)Cc2nc(C3CCOCC3)c3c(c2[C@@H](O)C1)C1(CCOCC1)O[C@@H]3c1ccc(C(F)(F)F)cn1 | 5.77 |
| CC(C)c1nc2c(c3c1[C@@H](c1ncc(C(F)(F)F)cc1F)OC31CCOCC1)[C@@H](O)CC(C)(C)C2 | 6.69 |
| COCc1nc2c(c3c1[C@@H](c1ccc(C(F)(F)F)cc1)OC31CCOCC1)[C@@H](O)CC(C)(C)C2 | 6.10 |
| CC(C)c1nc2c(c3c1[C@@H](c1ccc(C(F)(F)F)cn1)OC31CCC(F)(F)CC1)[C@@H](O)CC(C)(C)C2 (single isomer, unassigned) [7 (Diastereomer 1)] | 6.71 |
| CC1(C)C[C@H](O)c2c(nc(C3CCOCC3)c3c2C2(CCOCC2)O[C@@H]3c2ccc(C(F)(F)F)c(C#N)c2)[C@@H]1O | 6.83 |
| CC(C)c1nc2c(c3c1[C@@H](c1ccc(C(F)(F)F)c(F)c1)OC31CCOCC1)[C@@H](O)CC(C)(C)C2 | 7.64 |
| CC(C)c1nc2c(c3c1[C@@H](c1ccc(C(F)(F)F)cc1F)OC31CCOCC1)[C@@H](O)CC(C)(C)[C@@H]2O | 6.39 |
| CC1(C)Cc2nc(C3CCOCC3)c3c(c2[C@@H](O)C1)C1(CCOCC1)O[C@@H]3c1ccc(S(F)(F)(F)(F)F)cc1 | 7.18 |
| CC(C)c1nc2c(c3c1[C@@H](c1ccc(C(F)(F)F)c(C#N)c1)OC31CCOCC1)[C@@H](O)CC(C)(C)C2 | 7.47 |
